assayedSystem: T1, Recombinant human MASP1 enzyme (fragment corresponding to amino acids 297-699, C-terminal His Tag) (human, UniProt P48740 297-699)
T1 sequence: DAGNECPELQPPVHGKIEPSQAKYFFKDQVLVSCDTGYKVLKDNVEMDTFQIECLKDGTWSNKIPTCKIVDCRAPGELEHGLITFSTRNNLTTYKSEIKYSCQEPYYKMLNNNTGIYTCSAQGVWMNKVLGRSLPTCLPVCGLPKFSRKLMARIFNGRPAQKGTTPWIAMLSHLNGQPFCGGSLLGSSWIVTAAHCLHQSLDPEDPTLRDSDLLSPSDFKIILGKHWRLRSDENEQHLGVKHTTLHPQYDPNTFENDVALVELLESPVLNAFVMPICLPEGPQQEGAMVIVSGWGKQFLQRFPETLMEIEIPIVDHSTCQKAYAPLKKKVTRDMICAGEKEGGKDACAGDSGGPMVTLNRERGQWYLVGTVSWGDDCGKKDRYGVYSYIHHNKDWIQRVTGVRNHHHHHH
assayOverview: cell-based or functional assay
Bridge positions count the residues as written; N and C are the ends. Square brackets hold non-standard residues; d marks the D form. Ends that are not written are not given here. Oic = O=C(O)[C@@H]1C[C@@H]2CCCC[C@@H]2N1; tBuAla = CC(C)(C)C[C@H](N)C(=O)O; Pen = CC(C)(S)[C@H](N)C(=O)O
quantity: human MASP1 IC50 (nM)

[[record]]
binder = "[dA]ICSRSLP[Oic]I[Pen]IPQ-OH (disulfide 3-11; N-terminus assumed; SMILES CC[C@H](C)[C@H](NC(=O)[C@@H](C)N)C(=O)N[C@H]1CSSC(C)(C)[C@@H](C(=O)N[C@H](C(=O)N2CCC[C@H]2C(=O)N[C@@H](CCC(N)=O)C(=O)O)[C@@H](C)CC)NC(=O)[C@H]([C@@H](C)CC)NC(=O)[C@@H]2C[C@@H]3CCCC[C@@H]3N2C(=O)[C@@H]2CCCN2C(=O)[C@H](CC(C)C)NC(=O)[C@H](CO)NC(=O)[C@H](CCCNC(=N)N)NC(=O)[C@H](CO)NC1=O) [aIC+SRSLP-(Oic)-I-(Pen)+IPQ-OH]"
unitlabel = "nM"
assayresult = 4.9

[[record]]
binder = "ICSRS[tBuAla]PPI[Pen]IPP-NH2 (disulfide 2-10; N-terminus assumed; SMILES CC[C@H](C)[C@H](N)C(=O)N[C@H]1CSSC(C)(C)[C@@H](C(=O)N[C@H](C(=O)N2CCC[C@H]2C(=O)N2CCC[C@H]2C(N)=O)[C@@H](C)CC)NC(=O)[C@H]([C@@H](C)CC)NC(=O)[C@@H]2CCCN2C(=O)[C@@H]2CCCN2C(=O)[C@H](CC(C)(C)C)NC(=O)[C@H](CO)NC(=O)[C@H](CCCNC(=N)N)NC(=O)[C@H](CO)NC1=O) [IC+SRS-((tBu)A)-PPI-(Pen)+IPP-NH2]"
unitlabel = "nM"
assayresult = 19

